- Test summary: chemical genetic growth profiling, strain panel (AID 1159580);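 also: tested at 20 µM; growth read once vehicle control cultures reached saturation at 30 °C; 1 = growth at the plate median or of vehicle wells; lower values mean less growth of the strain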
- Conditions used: S. cerevisiae deletion strains, growth OD, locus YPL055C, strain LGE1
The whole screen tested about 5,500 compounds, of which about 2,000 (36%) were called active. Inconclusive results (about 18%) are left out. Rule as the data show it: active = normalized growth mostly below about 0.91 (no sharp cut-off); inconclusive = no clear call, values can overlap the other calls; inactive = mostly above about 0.92. This is one part of the list.
Hi! Could you answer with just one of these? true (1) (active), false (0) (inactive)

Take a look at these entries with their results.
[
  {
    "Compound": "Cc1ncc(CNC(=O)N(CCCl)N=O)c(N)n1",
    "Label class": "false (0)"
  },
  {
    "Compound": "O=C(O)c1cncc(C#Cc2ccccc2)c1",
    "Label class": "false (0)"
  },
  {
    "Compound": "O=C(Oc1cc(O)cc2c1C[C@@H](OC(=O)c1cc(O)c(O)c(O)c1)[C@@H](c1cc(O)c(O)c(O)c1)O2)c1cc(O)c(O)c(O)c1",
    "Label class": "true (1)"
  },
  {
    "Compound": "CSc1nc2ccccc2[nH]1",
    "Label class": "false (0)"
  },
  {
    "Compound": "C[C@]12CCC(=O)C=C1C=CC1C2CC[C@@]2(C)C1CC[C@@]2(O)CCC(=O)O (stereo partly drawn)",
    "Label class": "false (0)"
  },
  {
    "Compound": "CSc1c(-c2ccccc2)c(N)nn1S(=O)(=O)c1ccccc1",
    "Label class": "false (0)"
  },
  {
    "Compound": "CC[C@@H]1C=C/C=C/C[C@H](C)[C@@H](O)[C@](C)(O)C(=O)[C@H](C)[C@@H](O)[C@H](C)C(=O)[C@H](C)[C@@H](O)[C@H](C)/C=C/C(=O)O[C@H]2[C@@H](C)[C@@H](CC1)O[C@@]1(CC[C@@H](C)[C@@H](CC(C)O)O1)[C@@H]2C (stereo partly drawn)",
    "Label class": "false (0)"
  }
]

In the following, a different compound is considered.
Exam item: Assay outcome for "CC1(C)S[C@@H]2[C@H](NC(=O)[C@H](N)c3ccccc3)C(=O)N2[C@H]1C(=O)O" : what was it?
Marked response: false (0)

---

- Test summary: chemical genetic growth profiling, strain panel (AID 1159580);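 also: tested at 20 µM; growth read once vehicle control cultures reached saturation at 30 °C; 1 = growth at the plate median or of vehicle wells; lower values mean less growth of the strain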
- Conditions used: S. cerevisiae deletion strains, growth OD, locus YEL003W, strain gim4, hits give low values
The whole screen tested about 5,500 compounds, of which about 2,000 (36%) were called active. Another 18% or so got no clear call; they are omitted. This is one part of the list.
Friendly reminder: normalized growth below 1 is y, at or above is n.

Take a look at these entries with their results.
[
  {
    "Record smiles": "O=c1cccc2ccc(O)c(O)c2c1O",
    "Label class": "y"
  },
  {
    "Record smiles": "CCN(CC)C(=O)N1CCN(C)CC1",
    "Label class": "y"
  }
]

Exam item: Lab note: normalized growth threshold 1. Does this compound come in strictly under it? "O=C(NC(=O)c1ccccc1Cl)Nc1ccc(OC(F)(F)F)cc1"
Marked response: n

---

- Test summary: chemical genetic growth profiling, strain panel (AID 1159580);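 also: tested at 20 µM; growth read once vehicle control cultures reached saturation at 30 °C; 1 = growth at the plate median or of vehicle wells; lower values mean less growth of the strain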
- Conditions used: S. cerevisiae deletion strains, growth OD, locus YJL187C, strain SWE1 (second series), hits give low values
The campaign covered roughly 5,500 compounds. About 2,000 (36%) were called active. Roughly 18% stayed inconclusive and do not appear here. This is one part of the list.
Endpoint name: normalized growth
Provide a numeric answer; units are not to be included.

Previously resolved entries follow.
[
  {
    "Compound": "COc1cc2c(cc1OC)C(=O)c1ccc(OC)c(OC)c1OCC(=O)C2",
    "normalized growth": 1.01
  },
  {
    "Compound": "O=C1CCC(N2C(=O)c3ccccc3C2=O)C(=O)N1 (stereo not drawn)",
    "normalized growth": 1.01
  },
  {
    "Compound": "CN1CCC(OC(c2ccccc2)c2ccccc2)CC1",
    "normalized growth": 0.972
  }
]

Exam item: I have this compound here, "O=C1NCC2(CCN(CCc3ccccc3)CC2)O1" , and I need its recorded normalized growth.
Marked response: 1.02

Exam item: I have this compound here, "Cc1[nH]c2ccccc2c1CN(C)C" , and I need its recorded normalized growth.
Marked response: 1.01

Exam item: I have this compound here, C[C@@H]1CC(Cl)CC[C@H]1C(=O)OC(C)(C)C (stereo partly drawn) , and I need its recorded normalized growth.
Marked response: 0.975
